Kindly supply the reported parental ratio values for the records listed here.
Target: PD-L1 (human)
Sequence (chain, as listed by the source): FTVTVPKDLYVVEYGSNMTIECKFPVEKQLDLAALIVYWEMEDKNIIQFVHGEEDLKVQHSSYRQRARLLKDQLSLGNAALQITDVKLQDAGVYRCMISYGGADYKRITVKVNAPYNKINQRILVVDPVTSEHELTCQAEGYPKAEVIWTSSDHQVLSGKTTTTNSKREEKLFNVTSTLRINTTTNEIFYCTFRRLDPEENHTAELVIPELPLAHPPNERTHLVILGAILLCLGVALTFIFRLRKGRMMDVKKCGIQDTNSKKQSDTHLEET
Test: flow cytometry, cells expressing PD-L1

1. variant CD80 A91G/L102S (Fc fusion) VIHVTKEVKEVATLSCGHNVSVEELAQTRIYWQKEKKMVLTMMSGDMNIWPEYKNRTIFDITNNLSIVILALRPSDEGTYECVVLKYEKDGFKREHLAEVTSSVKADFPTPSISDFEIPTSNIRRIICSTSGGFPEPHLSWLENGEELNAINTTVSQDPETELYAVSSKLDFNMTTNHSFMCLIKYGHLRVNQTFNWNTTKQEHFPDN ... 0.08

The record that follows has no parental ratio shown yet.
Query :: Tell me measured parental ratio for variant CD80 I67F/L70R/E88G/A91G/I118V/T120S/T130A (Fc fusion) VIHVTKEVKEVATLSCGHNVSVEELAQTRIYWQKEKKMVLTMMSGDMNIWPEYKNRTIFDITNNLSFVIRALRPSDEGTYECVVLKYGKDGFKREHLAEVTLSVKADFPTPSISDFEVPSSNIRRIICSASGGFPEPHLSWLENGEELNAINTTVSQDPETELYAVSSKLDFNMTTNHSFMCLIKYGHLRVNQTFNWNTTKQEHFPDN please.
Result :: 0.08

The measured values listed here are drawn from patent US20250163127A1.
